Form field: selectivity ratio (one value per entry).
assay: Selectivity index, ratio of IC50 for CHO cells to MIC99 for isoniazid mono-resistant Mycobacterium tuberculosis isolate R5401; format: toxicity; settings: hamster, read-out: Selectivity Index
Measured Parameter: selectivity ratio

[[record]]
chem_smiles = "O=C(NNCCCN1CCC(N2c3ccccc3Sc3ccc(Cl)cc32)CC1)c1ccncc1"
measured_parameter = "selectivity ratio"
censoring_qualifier = "="
meas_value = 37

[[record]]
chem_smiles = "O=C(NNCCCN1CCN(CC(O)(c2ccccc2)c2ccccc2)CC1)c1ccncc1"
measured_parameter = "selectivity ratio"
censoring_qualifier = "="
meas_value = 139

[[record]]
chem_smiles = "O=C(NNCCCN1CCC(=C2c3ccccc3Sc3ccc(Cl)cc32)CC1)c1ccncc1"
measured_parameter = "selectivity ratio"
censoring_qualifier = "="
meas_value = 237

[[record]]
chem_smiles = "O=C(NNCCCN1CCN(C(c2ccccc2)c2ccccc2)CC1)c1ccncc1"
measured_parameter = "selectivity ratio"
censoring_qualifier = "="
meas_value = 19.3

[[record]]
chem_smiles = "O=C(NNCCCN1CCC(=C2c3ccccc3C=Cc3ccccc32)CC1)c1ccncc1"
measured_parameter = "selectivity ratio"
censoring_qualifier = "="
meas_value = 59.2

[[record]]
chem_smiles = "O=C(NNCCCN1CCC(=C2c3ccccc3Sc3ccccc32)CC1)c1ccncc1"
measured_parameter = "selectivity ratio"
censoring_qualifier = "="
meas_value = 60.8

[[record]]
chem_smiles = "NNC(=O)c1ccncc1"
measured_parameter = "selectivity ratio"
censoring_qualifier = ">"
meas_value = 35

[[record]]
chem_smiles = "O=C(NNCCCN1CCC(N2c3ccccc3Sc3ccccc32)CC1)c1ccncc1"
measured_parameter = "selectivity ratio"
censoring_qualifier = "="
meas_value = 48.8

[[record]]
chem_smiles = "O=C(NNCCCN1CCN(C(c2ccccc2)(c2ccccc2)c2ccccc2)CC1)c1ccncc1"
measured_parameter = "selectivity ratio"
censoring_qualifier = "="
meas_value = 78.1


From: ChEMBL document CHEMBL4184228
